Where do the numbers come from? From ChEMBL document CHEMBL1154594.

Experiment: Intrinsic clearance in rat liver microsomes
Format: ADME, Microsome
QUANTITY_NAME: microsomal CLint (µL/min/mg)
Provide only the numeric value, understood in µL/min/mg.

STRUCTURE_SMILES	UNIT_DESCRIPTOR	microsomal CLint
CCN(CC)C(=O)c1ccc(N(c2cccc(C(N)=O)c2)C2CCN(Cc3ccccc3)CC2)cc1	µL/min/mg	62

Record summary for `CCN(CC)C(=O)c1ccc(N(c2cccc(O)c2)C2CCN(Cc3ccccc3)CC2)cc1` : reported microsomal CLint = 384

====

Assay: Intrinsic clearance in human liver microsomes
Format: ADME, Microsome
The following molecules are shown together with reported microsomal CLint values.
Number only, in µL/min/mg; omit the unit.

Solved cases below.
STRUCTURE_SMILES	microsomal CLint, µL/min/mg
CCN(CC)C(=O)c1ccc(N(c2cccc(NC(C)=O)c2)C2CCN(Cc3ccccc3)CC2)cc1	139
CCN(CC)C(=O)c1ccc(N(c2cccc(O)c2)C2CCN(Cc3ccccc3)CC2)cc1	286
CCN(CC)C(=O)c1ccc(N(c2cccc(NS(C)(=O)=O)c2)C2CCN(Cc3ccccc3)CC2)cc1	96
CCN(CC)C(=O)c1ccc(N(c2cccc(C(N)=O)c2)C2CCN(Cc3ccccc3)CC2)cc1	71

# evaluate next
microsomal CLint recorded for this molecule, `CCN(CC)C(=O)c1ccc(N(c2cccc(NC(=O)OC)c2)C2CCN(Cc3ccccc3)CC2)cc1` , is 200
